Value source: ChEMBL document CHEMBL1201862

- Test system: DMS-114
- Assay protocol: NCI tumour cell line growth inhibition, 48 h
The source made the active and inactive calls. No stated cut-off is given here; in the data, active = GI50 up to about 1.1 µM and inactive = higher.
Outcome codes: active, inactive

Compound	Assigned label
Clc1cccc2c1OCC1C(c3ccccc3)=NN(c3ccccc3)C21 (stereo not drawn)	inactive
CC12OC3(C)OC(=O)C(c4ccccc4)(O1)C3(C)O2 (stereo not drawn)	inactive
FC(F)(F)c1cccc(C2SCc3nc4ccccc4n32)c1 (stereo not drawn)	inactive
O=C1c2ccccc2CC1C1(O)C(=O)Nc2ccccc21 (stereo not drawn)	inactive
Cc1cc(NCCCCCCCCNc2cc(C)nc3cc(N(C)C)ccc23)c2ccc(N(C)C)cc2n1	inactive
O=c1[nH]c2cc([N+](=O)[O-])ccc2nc1/C(=N\NO)C(O)c1ccc([N+](=O)[O-])cc1 (stereo not drawn)	inactive
COc1cc(C(O)C(=O)c2cnc3cc([N+](=O)[O-])ccc3n2)ccc1O (stereo not drawn)	inactive
CCCC(C)C[C@@H](C)CC(C)/C=C(\C)c1oc(=O)c(C)c(O)c1C.CC[C@@H](C)C[C@@H](C)C[C@@H](C)/C=C(\C)c1oc(=O)c(C)c(O)c1C (stereo partly drawn)	inactive
CC1(O)C(C)(O)C2(C)O[Te]3(OC12C)OC1(C)C(C)(O)C(C)(O)C1(C)O3 (stereo not drawn)	inactive
CC(Nc1ccc(S(=O)(=O)NC(=N)N)cc1)c1c2ccccc2nc2ccccc12 (stereo not drawn)	inactive
C[N+](C)(C)CC(CC(=O)[O-])C1CC1 (stereo not drawn)	inactive
COc1ccc(-c2cc(O)c3ccc(F)cc3n2)cc1	inactive
C=C1C(O)C2(O)OCC34C(CC5C(C)=CC(=O)C(O)C5(C)C23)OC(=O)C(OC(=O)C/C=C(\C)CCCCC)C14 (stereo not drawn)	active

----------
- System: A498
- Assay protocol: NCI tumour cell line growth inhibition, 48 h
Activity calls are given as the source filed them. Rule as the data show it: active = GI50 up to about 1.1 µM and inactive = higher.
Outcome codes: Y (active), N (inactive)

Compound	Assigned label
O=C(O)c1cc(C(=O)O)cc(N2C(=O)c3ccccc3C2=O)c1	N
COC(=O)C1=C2Nc3ccccc3C23CCN2C(O)C4(CC5CC67CCOC6CCN6CCC8(c9cccc(OC)c9N(C4)C58O)C67)C4OCCC4(C1)C23 (centres undefined)	N
Cc1nn(C(=O)c2ccccc2O)c2c1C(c1ccc(O)cc1)SC(=N)N2 (centres undefined)	N
O=S(=O)(c1cc(Cl)ccc1Cl)n1ccnc1	N
NC(=O)CCC(Nc1c2ccccc2[n+]([O-])c2ccccc12)C(=O)O (centres undefined)	N
COC(=O)NC1C(C)OC(OC2C/C=C(/C)C3C=CC4C(OC5CC(OC6CC(O)C(OC7CC(O)C(OC)C(C)O7)C(C)O6)C(O)C(C)O5)C(C)CC(C)C4C3(C)C(=O)C3=C(O)C4(CC(C)C(CO)=CC4/C=C\2C)OC3=O)CC1(C)[N+](=O)[O-] (centres undefined)	N
O=C(/N=N/c1ccccc1Cl)NNc1ccccc1Cl	N
O=C1CC(c2cccc(Cl)c2)Nc2ccc(N3CCCC3)cc21 (centres undefined)	Y
O=[N+]([O-])C1=Cc2cc(Cl)ccc2OC1c1cccc2ccccc12 (centres undefined)	N

----------
- System: SK-MEL-5
- Assay protocol: NCI tumour cell line growth inhibition, 48 h
Calls of active or inactive are those of the source. Rule as the data show it: active = GI50 up to about 1.1 µM and inactive = higher.
# GI50 listing for each entry below
Value type: GI50

Molecule	Result
COc1ccc(C(CC2(c3ccc(OC)cc3)SCCCS2)NC(C)=O)cc1 (stereo not drawn)	18.4 µM (inactive)
C/C(=N/N)c1ccc2[nH]c3c(C)cc([N+](=O)[O-])c(C)c3c2c1	5 µM (inactive)
CC(C)NC(=O)OCCN=C1c2ccccc2CCc2ccccc21	13.9 µM (inactive)
CN(CCNC(=O)c1c[nH]c2c1ccc1ccccc12)CCNC(=O)c1c[nH]c2c1ccc1ccccc12	7.29 µM (inactive)
O=C1c2ccccc2CC1C1(O)C(=O)Nc2ccccc21 (stereo not drawn)	> 100 µM (inactive)
CCc1ccc(CCN2CCCCC2)nc1	> 100 µM (inactive)
Cc1cccc(NC(=S)NNC(=O)c2cc(-c3ccccc3)nc3ccccc23)c1	19.9 µM (inactive)
C[N+](C)(C)CC(CC(=O)[O-])C1CC1 (stereo not drawn)	> 100 µM (inactive)
Cn1c(=O)c2nc(CCCc3ccc([N+](=O)[O-])cc3)[nH]c2n(C)c1=O	59.3 µM (inactive)
O=C(c1ccccc1)c1ccc(N2C(=O)/C(=C/c3cccc([N+](=O)[O-])c3)N=C2c2ccccc2)c(N2C(=O)/C(=C/c3cccc([N+](=O)[O-])c3)N=C2c2ccccc2)c1	2.34 µM (inactive)
Cc1cc2nc(N3C(=O)/C(=C/c4ccc(Cl)cc4)N=C3c3ccccc3)sc2cc1C	16.1 µM (inactive)
COC1C(OC(N)=O)C(O)C(Oc2ccc3c(O)c(NC(=O)c4ccc(O)c(CC=C(C)C)c4)c(=O)oc3c2C)OC1(C)C (stereo not drawn)	> 100 µM (inactive)
Nc1ncnc2c1cnn2COCC(O)CO (stereo not drawn)	> 100 µM (inactive)
c1ccc(CN2CCC(Nc3ccccc3)(c3nnnn3Cc3ccccc3)CC2)cc1	13 µM (inactive)
C=C(C)[C@@H]1CCC2=C(CC[C@]3(C)[C@@H]([C@@H](CCC=C(C)C)C(=O)O)[C@H](O)C[C@@]23C)[C@@]1(C)CCC(=O)O [PORICOIC ACID G]	92.7 µM (inactive)
OCCn1cnc2c(SCc3ccccc3)ncnc21	> 100 µM (inactive)
COc1cc(/C=N/c2ccc(S(N)(=O)=O)cc2)cc(OC)c1	> 50 µM (inactive)
Cc1ccc(NC(=O)C(=O)CC(=O)C2CCOC2=O)c(C)c1 (stereo not drawn)	> 100 µM (inactive)
